Ref: ChEMBL document CHEMBL1138533

Each entry below carries its recorded AUC at 24 h.
- METHOD: AUC (0 to 24 hrs) in beta lactamase-positive Haemophilus influenzae pharmacokinetic simulation model dosed as amoxicillin-clavulanic acid at simulated human serum concentration of 2000/125 mg, po bid after 48 hrs
- Assay type: ADME, organism-based
READOUT: AUC at 24 h (ng·h/mL)

INSERT INTO assay_data (molecular_string, readout, unit_tag, measured) VALUES
  ('CC1(C)S[C@@H]2[C@H](NC(=O)[C@H](N)c3ccc(O)cc3)C(=O)N2[C@H]1C(=O)O', 'AUC at 24 h', 'ng·h/mL', 48700),
  ('O=C(O)[C@H]1/C(=C/CO)O[C@@H]2CC(=O)N21', 'AUC at 24 h', 'ng·h/mL', 4500);

* * *

- METHOD: fTmax in beta lactamase-negative Haemophilus influenzae pharmacokinetic simulation model dosed as amoxicillin-clavulanic acid at simulated human serum concentration of 2000/125 mg, po bid after 48 hrs
- Type: ADME, organism-based
- APPLIED CONDITIONS: read-out: fTmax
Each entry below carries its recorded Tmax.
READOUT: Tmax (h)

INSERT INTO measurements (molecular_string, unit_tag, measured) VALUES
  ('O=C(O)[C@H]1/C(=C/CO)O[C@@H]2CC(=O)N21', 'h', 1.5),
  ('CC1(C)S[C@@H]2[C@H](NC(=O)[C@H](N)c3ccc(O)cc3)C(=O)N2[C@H]1C(=O)O', 'h', 1.5);

* * *

Each entry below carries its recorded half-life.
- METHOD: Half life of free unbound fraction in beta lactamase-negative Haemophilus influenzae pharmacokinetic simulation model dosed as amoxicillin-clavulanic acid at simulated human serum concentration of 2000/125 mg, po bid after 48 hrs
- Format: ADME, organism-based
- APPLIED CONDITIONS: read-out: ft1/2 (converted)
READOUT: half-life (h)

INSERT INTO measurements (molecule, measured) VALUES
  ('CC1(C)S[C@@H]2[C@H](NC(=O)[C@H](N)c3ccc(O)cc3)C(=O)N2[C@H]1C(=O)O [AMOXICILLIN]', 1.4),
  ('O=C(O)[C@H]1/C(=C/CO)O[C@@H]2CC(=O)N21 [CLAVULANIC ACID]', 1);

* * *

- METHOD: Tmax in beta lactamase-negative Haemophilus influenzae pharmacokinetic simulation model dosed as amoxicillin-clavulanic acid at simulated human serum concentration of 2000/125 mg, po bid after 48 hrs
- Assay type: ADME, organism-based
Each entry below carries its recorded Tmax.
READOUT: Tmax (h)

INSERT INTO results (molecular_string, measured) VALUES
  ('CC1(C)S[C@@H]2[C@H](NC(=O)[C@H](N)c3ccc(O)cc3)C(=O)N2[C@H]1C(=O)O', 1.5),
  ('O=C(O)[C@H]1/C(=C/CO)O[C@@H]2CC(=O)N21', 1.5);

* * *

- METHOD: AUC (0 to 24 hrs) in beta lactamase-negative Haemophilus influenzae pharmacokinetic simulation model dosed as amoxicillin-clavulanic acid at simulated human serum concentration of 2000/125 mg, po bid after 48 hrs
- Assay type: ADME, organism-based
READOUT: AUC at 24 h

INSERT INTO assay_data (molecular_string, readout, measured) VALUES
  ('CC1(C)S[C@@H]2[C@H](NC(=O)[C@H](N)c3ccc(O)cc3)C(=O)N2[C@H]1C(=O)O', 'AUC at 24 h', '73100 ng·h/mL'),
  ('O=C(O)[C@H]1/C(=C/CO)O[C@@H]2CC(=O)N21', 'AUC at 24 h', '4700 ng·h/mL');

* * *

- METHOD: Cmax in beta lactamase-positive Haemophilus influenzae pharmacokinetic simulation model dosed as amoxicillin-clavulanic acid at simulated human serum concentration of 2000/125 mg, po bid after 48 hrs
- Type: ADME, organism-based
Each entry below carries its recorded Cmax.
READOUT: Cmax (ng/mL)

INSERT INTO assay_data (molecular_string, unit_tag, measured) VALUES
  ('O=C(O)[C@H]1/C(=C/CO)O[C@@H]2CC(=O)N21', 'ng/mL', 2100),
  ('CC1(C)S[C@@H]2[C@H](NC(=O)[C@H](N)c3ccc(O)cc3)C(=O)N2[C@H]1C(=O)O', 'ng/mL', 17400);

* * *

- METHOD: Half life in beta lactamase-negative Haemophilus influenzae pharmacokinetic simulation model dosed as amoxicillin-clavulanic acid at simulated human serum concentration of 2000/125 mg, po bid after 48 hrs
- Format: ADME, organism-based
READOUT: half-life

INSERT INTO assay_data (molecular_string, readout, measured) VALUES
  ('O=C(O)[C@H]1/C(=C/CO)O[C@@H]2CC(=O)N21', 'half-life', '1 h'),
  ('CC1(C)S[C@@H]2[C@H](NC(=O)[C@H](N)c3ccc(O)cc3)C(=O)N2[C@H]1C(=O)O', 'half-life', '1.3 h');
